The origin of these recorded values is patent US20240116946A1.

# system_under_test: recombinant SARS-CoV-2 Main protease (Mpro) (Severe acute respiratory syndrome coronavirus 2 (2019-nCoV) (SARS-CoV-2))
# assay_protocol: Cov Mpro Biochemical IC50 Assay
# run_parameters: recombinant SARS-CoV-2 Mpro 7.5 nM, fluorogenic peptide substrate 40 μM; read-out: MPro IC50
assay_endpoint: IC50 (µM)
One number for each entry, in µM.

| compound | IC50 (µM) |
| --- | --- |
| Cn1nnc2cncc(-n3c(=O)c4sc(-c5ccccc5Cl)cc4n(CCC#N)c3=O)c21 | 0.0154 |
| N#CCCn1c(=O)n(-c2cncc3ccccc23)c(=O)c2sc(-c3ccccc3C#N)cc21 (single isomer, unassigned) [Example 964] | 0.0625 |
| COc1cncc(-n2c(=O)c3sc(-c4ccccc4C#N)cc3n(CCC#N)c2=O)c1 | 0.0446 |
| COc1cc(-c2cc3c(s2)c(=O)n(-c2cncc4ccccc24)c(=O)n3C)c(Cl)cc1F | 0.00563 |
| COc1ccc(Cl)c(-c2cc3[nH]c(=O)n(-c4cncc5ccc(N6CCN(S(C)(=O)=O)CC6)cc45)c(=O)c3s2)c1 | 0.00769 |

Give IC50 for each of the items listed below.
1. Cc1cncc(-n2c(=O)c3sc(-c4cc(Cl)ccc4C#N)cc3n(CCC#N)c2=O)c1
2. N#Cc1cc(-c2cc3[nH]c(=O)n(-c4cncc5ccccc45)c(=O)c3s2)c(Cl)cc1F

stdout:
0.00433
1.9

###

# system_under_test: recombinant SARS-CoV-2 Main protease (Mpro) (Severe acute respiratory syndrome coronavirus 2 (2019-nCoV) (SARS-CoV-2))
# assay_protocol: Cov Mpro Biochemical IC50 Assay
# run_parameters: recombinant SARS-CoV-2 Mpro 7.5 nM, fluorogenic peptide substrate 40 μM; read-out: MPro IC50
Task for the reader: assign each of the following compounds its reported IC50.
Answers are plain numbers, in nM.

Here's what some known entries look like.
| compound | IC50 / nM |
| --- | --- |
| COc1cc(-c2cc3c(s2)c(=O)n(-c2cncc(C#N)c2C)c(=O)n3CCC#N)c(Cl)cc1F [Example 868] | 9.86 |
| COc1cc(-c2cc3[nH]c(=O)n(-c4cncc5c4OCCC5)c(=O)c3s2)c(Cl)cc1F [Example 1079] | 10.3 |

Give IC50 for each of the items listed below.
1. COc1cc(-c2cc3c(s2)c(=O)n(-c2cncc4ncn(C)c24)c(=O)n3CCC#N)c(C#N)cc1F [Example 845]
2. N#CCCn1c(=O)n(-c2cncc3cccnc23)c(=O)c2sc(-c3ccccc3Cl)cc21 [Example 905]
3. Cc1cncc(-n2c(=O)c3sc(-c4ccc(F)cc4C#N)cc3n(CCC#N)c2=O)c1 [Example 880]
4. COc1ccc(Cl)c(-c2cc3[nH]c(=O)n(-c4cncc5c(F)cccc45)c(=O)c3s2)c1 [Example 585]

stdout:
1: 10; 2: 5.93; 3: 10.6; 4: 10.1

###

# system_under_test: recombinant SARS-CoV-2 Main protease (Mpro) (Severe acute respiratory syndrome coronavirus 2 (2019-nCoV) (SARS-CoV-2), UniProt P0DTD1)
# assay_protocol: Cov Mpro Biochemical IC50 Assay
# run_parameters: recombinant SARS-CoV-2 Mpro 7.5 nM, fluorogenic peptide substrate 40 μM; read-out: MPro IC50
Just a reminder that ties go to condition not met: only IC50 strictly below 9 nM counts as condition met.

Sample answers from the record:
| record_smiles | label_value |
| --- | --- |
| O=c1[nH]c2cc(-c3ccccc3Cl)sc2c(=O)n1-c1cncc2ccsc12 | condition not met |
| O=c1[nH]c2cc(-c3c(Cl)cccc3-c3cnn4c3OCCC4)sc2c(=O)n1-c1cncc2ccccc12 | condition met |
| O=c1[nH]c2cc(-c3ccccc3Cl)sc2c(=O)n1-c1cncc2ccc(N3CC4(CCCO4)C3)cc12 | condition met |
| N#CCCn1c(=O)n(-c2cncc3ccccc23)c(=O)c2sc(-c3ccc(F)cc3Cl)cc21 | condition not met |
| COc1cc(-c2cc3c(s2)c(=O)n(-c2cncc4nc(-c5coc(C)n5)n(C)c24)c(=O)n3CCC#N)c(Cl)cc1F | condition not met |
| CN1CCN(c2ccc3cncc(-n4c(=O)[nH]c5cc(-c6ccccc6Cl)sc5c4=O)c3c2)CC1 | condition met |

stdin: Regarding CC1(C)Cc2c(-c3cccc(Cl)c3-c3cc4[nH]c(=O)n(-c5cncc6ccccc56)c(=O)c4s3)cnn2C1 , kindly confirm whether its IC50 is beneath 9 nM.
stdout: condition met

stdin: Queued: COc1cc(-c2cc3[nH]c(=O)n(-c4cncc5cnn(C)c45)c(=O)c3cc2OC)c(C#N)cc1F
stdout: condition not met

stdin: Queued: Cn1ncc2cncc(-n3c(=O)c4sc(-c5cc(C#N)ccc5Cl)cc4n(CCC#N)c3=O)c21
stdout: condition not met

stdin: Queued: COc1cc(-c2cc3c(s2)c(=O)n(-c2cncc4nc(C(F)F)n(C)c24)c(=O)n3CCC#N)c(Cl)cc1F
stdout: condition not met

stdin: Queued: Cn1ncc2cncc(-n3c(=O)c4sc(-c5cc(Cl)ccc5Cl)cc4n(CCC#N)c3=O)c21
stdout: condition met
